- assay.procedure: in vitro
- run.conditions: dog
parameter: CC50

Examples with their reported CC50 follow.
[[record]]
compound = "Nc1ccc2c(O)c(/N=N/c3ccc4c(O)cc(S(=O)(=O)O)cc4c3)c(S(=O)(=O)O)cc2c1 [NSC162535]"
parameter = "CC50"
assay_value = "> 100 µM"

[[record]]
compound = "O=C(Nc1ccc2c(O)c(/N=N/c3ccc4c(O)cc(S(=O)(=O)O)cc4c3)c(S(=O)(=O)O)cc2c1)c1ccccc1 [NSC45609]"
parameter = "CC50"
assay_value = "> 100 µM"


I'd like to know its CC50. The compound in question is O=C(Nc1ccc2c(O)cc(S(=O)(=O)O)cc2c1)Nc1ccc2c(O)cc(S(=O)(=O)O)cc2c1 [NSC45174] > 100 µM

* * *

- target: Wild type H1N1 NA (Influenza A virus, UniProt P03470)
- Sequence (P03470 whole entry, looked up): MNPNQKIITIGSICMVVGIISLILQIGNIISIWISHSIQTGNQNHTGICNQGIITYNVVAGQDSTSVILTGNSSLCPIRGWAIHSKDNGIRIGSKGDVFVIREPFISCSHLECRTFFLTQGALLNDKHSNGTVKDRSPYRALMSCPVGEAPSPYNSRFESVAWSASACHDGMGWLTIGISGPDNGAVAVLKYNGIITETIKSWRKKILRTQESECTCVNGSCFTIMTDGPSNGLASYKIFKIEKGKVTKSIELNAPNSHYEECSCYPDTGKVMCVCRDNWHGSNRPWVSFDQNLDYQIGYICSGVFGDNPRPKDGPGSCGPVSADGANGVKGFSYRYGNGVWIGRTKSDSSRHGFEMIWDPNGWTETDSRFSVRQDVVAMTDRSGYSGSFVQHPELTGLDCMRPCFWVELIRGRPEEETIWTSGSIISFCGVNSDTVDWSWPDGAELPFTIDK
- assay.procedure: biochemical
- run.conditions: NA inhibition, IC50 H1N1
# Lookup of reported pIC50 keyed by entry
Formally, pIC50 is defined as -log10 of the concentration c, with c in mol/L.

Some solved cases for reference:
[[record]]
compound = "CC1OC(OC2CC(O)C3(CO)C4C(O)CC5(C)C(C6COC(O)C6)CCC5(O)C4CCC3(O)C2)C(O)C(O)C1O (stereo not drawn)"
target = "Wild type H1N1 NA (Influenza A virus, UniProt P03470)"
parameter = "pIC50"
assay_value = 4.43

[[record]]
compound = "CC12CCC(O)CC1CCC1C2CC(O)C2(C)C(C3=CC(=O)OC3)CCC12O (stereo not drawn)"
target = "Wild type H1N1 NA (Influenza A virus, UniProt P03470)"
parameter = "pIC50"
assay_value = 4.44


Observed pIC50 on Wild type H1N1 NA (Influenza A virus, UniProt P03470) for CC12CCC(O)CC1CCC1C2CCC2(C)C(C3=CC(=O)OC3)CCC12O (stereo not drawn) , please. 4.50

* * *

- System: Influenza A virus (A/WSN/33) H1N1
- assay.procedure: microbe, parasite or virus in culture
- Assay type: cell-based
- run.conditions: read-out: IC50 H1N1 (concentration to reduce the CPE of the virus by 50%)
parameter: pIC50
The quantity pIC50 is defined as the negative base-10 logarithm of the molar concentration.

Some entries whose results are on file:
[[record]]
molecule = "O=C(Nc1ccc2c(O)cc(S(=O)(=O)O)cc2c1)Nc1ccc2c(O)cc(S(=O)(=O)O)cc2c1 [NSC45174]"
parameter = "pIC50"
assay_value = 4.44

[[record]]
molecule = "CCC(CC)O[C@@H]1C=C(C(=O)O)C[C@H](N)[C@H]1NC(C)=O [GS4071, oseltamivir carboxylate, reference compound]"
parameter = "pIC50"
assay_value = 7.70

[[record]]
molecule = "Nc1ccc2c(O)c(/N=N/c3ccc4c(O)cc(S(=O)(=O)O)cc4c3)c(S(=O)(=O)O)cc2c1 [NSC162535]"
parameter = "pIC50"
assay_value = 4.21


Form entry - test system: Influenza A virus (A/WSN/33) H1N1; read-out: pIC50; molecule: O=C(Nc1ccc2c(O)c(/N=N/c3ccc4c(O)cc(S(=O)(=O)O)cc4c3)c(S(=O)(=O)O)cc2c1)c1ccccc1 [NSC45609] 4.78

* * *

- target: UniProtKB P03470
parameter: IC50 (nM)
Quick reminder: number only, in nM, skip the unit.

Below, each entry is followed by its recorded IC50 result.
[[record]]
compound = "CC12CCC(O)CC1CCC1C2CCC2(C)C(C3=CC(=O)OC3)CCC12O (stereo not drawn)"
assay_value = 2000

[[record]]
compound = "CC1OC(OC2CC(O)C3(CO)C4C(O)CC5(C)C(C6COC(O)C6)CCC5(O)C4CCC3(O)C2)C(O)C(O)C1O (stereo not drawn)"
assay_value = 2180


Now examine the next entry.
Quick check: IC50 of CC12CCC(O)CC1CCC1C2CC(O)C2(C)C(C3=CC(=O)OC3)CCC12O (stereo not drawn) ? 1790

* * *

Reported IC50 values follow for various molecules
- target: Wild type H5N1 NA (Influenza A virus, UniProt Q6DPL2)
- Sequence (Q6DPL2 whole entry, looked up): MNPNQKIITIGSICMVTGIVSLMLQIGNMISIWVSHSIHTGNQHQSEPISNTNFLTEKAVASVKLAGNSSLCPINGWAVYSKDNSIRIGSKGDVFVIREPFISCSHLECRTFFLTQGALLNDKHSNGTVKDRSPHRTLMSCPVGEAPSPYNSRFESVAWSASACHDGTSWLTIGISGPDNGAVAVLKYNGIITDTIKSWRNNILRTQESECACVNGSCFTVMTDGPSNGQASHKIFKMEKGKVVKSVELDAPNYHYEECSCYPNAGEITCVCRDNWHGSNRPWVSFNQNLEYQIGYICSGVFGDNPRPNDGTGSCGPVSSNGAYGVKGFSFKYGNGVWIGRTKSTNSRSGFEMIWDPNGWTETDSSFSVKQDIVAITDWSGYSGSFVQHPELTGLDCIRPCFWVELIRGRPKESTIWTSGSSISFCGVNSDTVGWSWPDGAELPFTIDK
- assay.procedure: biochemical
- Format: biochemical
- run.conditions: read-out: IC50 Wild type H5N1

Some solved cases for reference:
[[record]]
molecule = "O=C(Nc1ccc2c(O)c(/N=N/c3ccc4c(O)cc(S(=O)(=O)O)cc4c3)c(S(=O)(=O)O)cc2c1)c1ccccc1 [NSC45609]"
assay_value = "< 20 µM"

[[record]]
molecule = "Nc1ccc2c(O)c(/N=N/c3ccc4c(O)cc(S(=O)(=O)O)cc4c3)c(S(=O)(=O)O)cc2c1 [NSC162535]"
assay_value = "< 20 µM"


Can you share its IC50? I mean this molecule: O=C(Nc1ccc2c(O)cc(S(=O)(=O)O)cc2c1)Nc1ccc2c(O)cc(S(=O)(=O)O)cc2c1 [NSC45174] < 20 µM

* * *

IC50 reference
- target: Wild type H5N1 NA (Influenza A virus, UniProt Q6DPL2)
- assay.procedure: biochemical
- Type: biochemical
Record the value in µM, omitting the unit from your answer.

// worked examples, IC50 included
[[record]]
molecule = "CC12CCC(O)CC1CCC1C2CCC2(C)C(C3=CC(=O)OC3)CCC12O (stereo not drawn) [BPR1P0008S0]"
unit_symbol = "µM"
assay_value = 2.56

[[record]]
molecule = "Nc1ccc2c(O)c(/N=N/c3ccc4c(O)cc(S(=O)(=O)O)cc4c3)c(S(=O)(=O)O)cc2c1 [NSC162535]"
unit_symbol = "µM"
assay_value = 18.7

[[record]]
molecule = "CC1OC(OC2CC(O)C3(CO)C4C(O)CC5(C)C(C6COC(O)C6)CCC5(O)C4CCC3(O)C2)C(O)C(O)C1O (stereo not drawn) [BPR1P0003S0]"
unit_symbol = "µM"
assay_value = 2.62

[[record]]
molecule = "CC12CCC(O)CC1CCC1C2CC(O)C2(C)C(C3=CC(=O)OC3)CCC12O (stereo not drawn) [BPR1P0007S0]"
unit_symbol = "µM"
assay_value = 2.49

[[record]]
molecule = "O=C(Nc1ccc2c(O)c(/N=N/c3ccc4c(O)cc(S(=O)(=O)O)cc4c3)c(S(=O)(=O)O)cc2c1)c1ccccc1 [NSC45609]"
unit_symbol = "µM"
assay_value = 13


Continue with the molecule presented below.
Any idea what IC50 was measured for O=C(Nc1ccc2c(O)cc(S(=O)(=O)O)cc2c1)Nc1ccc2c(O)cc(S(=O)(=O)O)cc2c1 [NSC45174] ? 16.7
